In this section we review reported A450 values for a set of binders.
Target: T1, Mouse Id3: Histidine (mouse, UniProt P41133 1-119)
T1 construct: Fusion protein made in E. coli from vector pGW07; also called m-Id3: His; Mouse Id3 (coated wells); not shown: His tag
T1 sequence: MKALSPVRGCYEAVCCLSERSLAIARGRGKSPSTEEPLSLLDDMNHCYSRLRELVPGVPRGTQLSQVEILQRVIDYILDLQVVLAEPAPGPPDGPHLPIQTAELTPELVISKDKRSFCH
Experiment: ELISA, Ab 0.010 µg/ml
Answer with a number only, understood to be in A450.

Example binders with recorded A450:
binder: rabbit monoclonal anti-mouse/human Id3, clone #BCH-4/#16-1 (antibody, V domains shown, Rabbit IgG from a rabbit hybridoma; also called m/h Id3 MoAb 16-1) VH: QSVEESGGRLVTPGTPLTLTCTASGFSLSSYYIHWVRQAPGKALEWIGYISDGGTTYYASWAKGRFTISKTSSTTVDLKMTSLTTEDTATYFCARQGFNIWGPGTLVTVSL VL: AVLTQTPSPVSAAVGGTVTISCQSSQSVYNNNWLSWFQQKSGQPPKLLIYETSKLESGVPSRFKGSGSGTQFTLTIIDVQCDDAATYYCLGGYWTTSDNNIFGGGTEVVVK
A450 (A450): 0.432
--
binder: rabbit monoclonal anti-mouse/human Id3, clone #BCH-4/#17-3 (antibody, V domains shown, Rabbit IgG from a rabbit hybridoma; also called m/h Id3 MoAb 17-3; BCH-3/#17-3) VH: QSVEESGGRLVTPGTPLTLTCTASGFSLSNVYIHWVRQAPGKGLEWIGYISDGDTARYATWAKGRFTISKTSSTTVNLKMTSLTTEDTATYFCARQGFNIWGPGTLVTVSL VL: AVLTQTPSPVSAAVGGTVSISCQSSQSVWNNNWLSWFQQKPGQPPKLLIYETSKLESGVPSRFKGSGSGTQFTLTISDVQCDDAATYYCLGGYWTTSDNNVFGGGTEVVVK
A450 (A450): 0.69
--
binder: rabbit monoclonal anti-mouse/human Id3, clone #BCH-4/#6-1 (antibody, V domains shown, Rabbit IgG from a rabbit hybridoma; also called m/h Id3 MoAb 6-1) VH: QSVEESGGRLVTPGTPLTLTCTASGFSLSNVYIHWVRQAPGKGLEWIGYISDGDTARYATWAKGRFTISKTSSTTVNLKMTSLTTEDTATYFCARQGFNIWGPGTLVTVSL VL: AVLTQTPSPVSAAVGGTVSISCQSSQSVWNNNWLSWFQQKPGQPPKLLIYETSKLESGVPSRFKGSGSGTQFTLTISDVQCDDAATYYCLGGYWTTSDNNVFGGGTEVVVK
A450 (A450): 0.539

Data request, read-out A450, for rabbit monoclonal anti-mouse/human Id3, clone #BCH-4/#42-1 (antibody, V domains shown, Rabbit IgG from a rabbit hybridoma; also called m/h Id3 MoAb 42-1) VH: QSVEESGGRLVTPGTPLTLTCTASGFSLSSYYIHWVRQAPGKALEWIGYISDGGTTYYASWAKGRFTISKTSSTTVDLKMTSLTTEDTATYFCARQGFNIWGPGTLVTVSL VL: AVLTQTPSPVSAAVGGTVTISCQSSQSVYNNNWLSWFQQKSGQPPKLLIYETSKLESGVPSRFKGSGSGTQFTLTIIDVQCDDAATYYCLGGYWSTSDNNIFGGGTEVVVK 0.756
